experimental_target: VR1 (Rattus norvegicus, UniProt O35433)
Construct: expressed in transfected cells; host or cells: Chinese Hamster Ovary cells (CHO, ATCC CCL-61), Tet-off inducible expression
Sequence (O35433 whole entry): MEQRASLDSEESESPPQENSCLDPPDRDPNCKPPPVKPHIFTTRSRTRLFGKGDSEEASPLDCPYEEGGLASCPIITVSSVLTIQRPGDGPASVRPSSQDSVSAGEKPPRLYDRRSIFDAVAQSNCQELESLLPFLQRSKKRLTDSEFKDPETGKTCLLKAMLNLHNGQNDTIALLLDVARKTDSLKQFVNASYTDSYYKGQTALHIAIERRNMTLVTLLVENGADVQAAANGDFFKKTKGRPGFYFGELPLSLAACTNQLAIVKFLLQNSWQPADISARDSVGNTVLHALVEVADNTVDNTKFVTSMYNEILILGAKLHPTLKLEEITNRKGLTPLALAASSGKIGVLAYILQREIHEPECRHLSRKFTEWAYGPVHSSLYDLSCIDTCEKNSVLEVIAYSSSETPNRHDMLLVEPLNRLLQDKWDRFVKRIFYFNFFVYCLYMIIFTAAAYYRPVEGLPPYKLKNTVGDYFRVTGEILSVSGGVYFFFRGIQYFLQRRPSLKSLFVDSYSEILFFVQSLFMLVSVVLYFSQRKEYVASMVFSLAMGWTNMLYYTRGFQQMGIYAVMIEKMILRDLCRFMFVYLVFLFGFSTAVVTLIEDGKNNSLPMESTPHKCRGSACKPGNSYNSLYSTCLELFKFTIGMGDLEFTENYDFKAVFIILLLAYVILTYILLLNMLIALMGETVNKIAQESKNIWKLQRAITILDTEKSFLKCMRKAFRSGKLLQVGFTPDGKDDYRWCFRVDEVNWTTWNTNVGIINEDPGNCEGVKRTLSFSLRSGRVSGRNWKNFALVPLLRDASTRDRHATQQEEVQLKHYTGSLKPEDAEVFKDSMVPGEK
protocol_summary: biochemical
Type: binding
test_context: read-out: Binding Affinity (Ki = nM)
Assignment: determine reported Ki for the given compounds.
Don't forget the unit after the value.

COc1cc(CNC(=S)NCC(COC(=O)C(C)(C)C)Cc2ccc(C)c(C)c2)ccc1O (centres unmarked) [JYL-79, reference compound] :: 17.4 nM

Please look at the following compound next.
**Q:** API: value(readout= Ki, system= VR1 (Rattus norvegicus, UniProt O35433), query= COc1cc(CNC(=S)NCC(COC(=O)C(C)(C)C)Cc2ccc(C(C)(C)C)cc2)ccc1O (centres unmarked) [JYL-273, reference compound] )
**A:** 6.35 nM
